- System: HaCat
- TEST_SUMMARY: Cytotoxic Profiling of Annotated Libraries Using Quantitative High-Throughput Screening (AID 1296008); note: nearly all actives have a fitted effect of over 60% in size
- REPORTED_CONDITIONS: Five cell lines viability, CellTiter-Glo ATP luminescence, 48-72 h
Results filed as inconclusive are left out. Calls of active or inactive are those of the source. Calls come from the whole dose curve; as a rule, active = well fitted inhibition curve with a large enough effect; inconclusive = small, poorly fitted or top-dose-only effect; inactive = flat fitted curve, though single readings scatter.
ASSAY_METRIC: outcome

These recorded examples may help you get a feel for the data.
C=CC(C)(O)CC/C=C(/C)C(=O)OC1C(OC2OCC(OC3OC(CO)C(O)C(O)C3O)C(OC3OCC(O)C(OC4OC(C)C(O)C(O)C4O)C3O)C2O)COC(OC(=O)C23CCC(C)(C)CC2C2=CCC4C5(C)CCC(OC6OC(CO)C(OC7OC(CO)C(O)C(OC8OCC(O)C(O)C8O)C7O)C(O)C6O)C(C)(C)C5CCC4(C)C2(C)CC3O)C1O (stereo unspecified) = inactive
CC1(C(=O)O)CCCC2(C)C1CCC13CC(CCC21)C1(CO)OC31 (stereo unspecified) = inactive
C[C@H]1[C@H](C)CC[C@]2(C(=O)O[C@@H]3O[C@H](CO)[C@@H](O)[C@H](O)[C@H]3O)CC[C@]3(C(=O)O)C(=CCC4[C@@]5(C)CC[C@H](O[C@@H]6O[C@H](CO)[C@@H](O)[C@H](O)[C@H]6O)C(C)(C)C5CC[C@]43C)[C@H]12 (stereo partly specified) = inactive
Cc1nnc(C(C)C)n1C1CC2CCC(C1)N2CC[C@H](NC(=O)C1CCC(F)(F)CC1)c1ccccc1 (stereo partly specified) = inactive
CC1=CC(=O)C2C(C)(C)CCCC2(C)C12CCC1(COC(=O)C1)O2 (stereo unspecified) = inactive

Prompt: # query: outcome of entry COC(=O)C1=C[C@@H](O)[C@@H](O)[C@H](O[C@@H]2O[C@H](COC(=O)/C=C/c3ccccc3)[C@@H](O)[C@H](O)[C@H]2O)C1
Completion: inactive

###

- Tested on: HeLa
- TEST_SUMMARY: Primary qHTS to identify gynecologic anti-cancer compounds using libraries of approved drugs and bioactive compounds (AID 1345084); note: % is set by controls: 0 for no effect and ±100 for the full control effect; nearly all actives have a fitted effect of over 55% in size
- REPORTED_CONDITIONS: Gynecologic cancer cell panel viability, ATPlite luminescence, 48 h; series mostly up to 57.5 µM
Records with an inconclusive call do not appear. Activity calls are given as the source filed them. Calls come from the whole dose curve; as a rule, active = well fitted cell-killing curve with a large enough effect; inconclusive = small, poorly fitted or top-dose-only effect, or effect the other way; inactive = flat fitted curve, though single readings scatter.
ASSAY_METRIC: activity change, negative = cytotoxicity

These recorded examples may help you get a feel for the data.
CCCn1cnc2c(NCc3ccccc3)nc(N[C@H](CC)CO)nc21 = inactive
CC1(C)OC(=O)C(OCC2CC2)=C1c1ccc(S(C)(=O)=O)cc1 = inactive
COc1ccc(/C=C/C(=O)O[C@@H]2[C@@H](O)[C@H](C)O[C@@H](OC3C4C=COC(O[C@@H]5O[C@H](CO)[C@@H](O)[C@H](O)[C@H]5O)C4C4(CO)OC34)[C@@H]2O)cc1OC (some centres undefined) = inactive
CC(=O)O[C@@H]1C[C@]2(C)[C@@]3(CCC4[C@@]5(C)CC[C@H](O[C@@H]6O[C@H](C(=O)O)[C@@H](O)[C@H](O[C@@H]7O[C@H](CO)[C@H](O)[C@H](O)[C@H]7O[C@@H]7O[C@@H](C)[C@H](O)[C@@H](O)[C@H]7O[C@@H]7OC[C@](O)(CO)[C@H]7O)[C@H]6O[C@@H]6O[C@H](CO)[C@H](O)[C@H](O)[C@H]6O)C(C)(C)C5CC[C@]42C)O[C@@H](O)[C@]12C3CC(C)(C)[C@@H](OC(=O)/C=C/c1ccc(O)c(O)c1)[C@@H]2OC(=O)/C=C/c1ccccc1 (some centres undefined) = 2.04% [at 6.55 µM] (inactive)
C#Cc1cnc2[nH]c(=O)n(C(CC)CC)c2n1 = inactive

Prompt: # query: activity change, negative = cytotoxicity of entry CC(C#N)C(C)O[C@@H]1O[C@H](CO)[C@@H](O)[C@H](O)[C@H]1O (some centres undefined)
Completion: inactive

Prompt: # query: activity change, negative = cytotoxicity of entry COc1ccc2c(c1O)OC[C@H]1c3ccc(O)cc3O[C@@H]21
Completion: inactive

Prompt: # query: activity change, negative = cytotoxicity of entry CCn1c2ccccc2c2cc(CNC)ccc21
Completion: inactive

Prompt: # query: activity change, negative = cytotoxicity of entry CC(C)C1=CC2=CCC3[C@](C)(CCC[C@@]3(C)C(=O)O)C2CC1=O (some centres undefined)
Completion: inactive

###

- TEST_SUMMARY: qHTS assay for small molecule disruptors of the mitochondrial membrane potential - 5 hr assay (AID 651755); note: % is set by controls: 0 for no effect and ±100 for the full control effect; nearly all actives have a fitted effect of over 40% in size
- REPORTED_CONDITIONS: JC-1-type ratio dye; series mostly up to 92.2 µM
Records with an inconclusive call do not appear. Activity calls are given as the source filed them. Calls come from the whole dose curve.
ASSAY_METRIC: outcome

CCCCC/C=C\C/C=C\CCCCCCCC(=O)O = inactive
Nc1ccn([C@H]2CS[C@@H](CO)O2)c(=O)n1 = inactive
CC(C)=O = inactive

###

# maps each entry to its max response
- Tested on: HaCat
- TEST_SUMMARY: Cytotoxic Profiling of Annotated Libraries Using Quantitative High-Throughput Screening (AID 1296008); note: nearly all actives have a fitted effect of over 60% in size; for max response: % is set by controls: 0 for no effect and ±100 for the full control effect
- REPORTED_CONDITIONS: Five cell lines viability, CellTiter-Glo ATP luminescence, 48-72 h; hits give low values
Records with an inconclusive call do not appear. *1 amine or outer side, *2 acyl side, *3 side chain or, on linkers, in order; H or OH if unused. Where a SMILES comes first, the peptide text is derived from it. Bridges are numbered along the chain shown (N, C = ends). X6 = O=C(CCC[*:2])[*:1]
Give the number; % is assumed, so skip it.

These recorded examples may help you get a feel for the data.
CC[C@H](C)[C@@H]1NC(=O)[C@H](Cc2ccc(OC)cc2)NC(=O)CCCSC[C@@H](C(=O)N2CCC[C@H]2C(=O)N[C@@H](CC(C)C)C(=O)NCC(N)=O)NC(=O)[C@H](CC(N)=O)NC(=O)[C@H](CCC(N)=O)NC1=O (Y(Me)IQNCPLG-NH2; linker N-5 via X6) = -67.2
CC(=O)OC[C@@]12[C@@H](OC(C)=O)C[C@@H](C)[C@](C)([C@@H]3C[C@H]4C=CO[C@H]4O3)[C@H]1CCC[C@]21CO1 = 2.97
CC1(C)O[C@@]2(C)CC[C@@H]1C[C@@H]2OC1OC(CO)C(O)C(O)C1O (some centres not stated) = -5.55
COc1c(C(CC(C)C)OC(C)=O)ccc(Oc2c(O)cc(C)cc2/C=C/C(C)=O)c1C(=O)O (configuration not stated) = -7.86
COc1cc(/C=C/C(=O)OC(C)(C)C(OC2OC(CO)C(O)C(O)C2O)C(=O)OCc2ccc(OC3OC(CO)C(O)C(O)C3O)cc2)ccc1O (configuration not stated) = 3.1

Prompt: # query: max response of entry CC(=O)c1c(C)cc(O[C@@H]2O[C@H](CO)[C@@H](O)[C@H](O)[C@H]2O)cc1O
Completion: 3.2

###

- TEST_SUMMARY: MultiTox-Fluor Cytotoxicity Assay - LYMP1-002 - Dead Cells (AID 960);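 note: cells exposed to compound for 16 h at 37 °C; 0% = DMSO and 100% = tetraoctylammonium bromide; nearly all actives have a fitted effect of over 60% in size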
- REPORTED_CONDITIONS: LYMP1-002 lymphoblastoid cells, dead-cell protease fluorescence; series mostly up to 46.1 µM
Inconclusive results are not listed. Calls of active or inactive are those of the source. Calls come from the whole dose curve; as a rule, active = well fitted cell-killing curve with a large enough effect; inconclusive = small, poorly fitted or top-dose-only effect, or effect the other way; inactive = no such curve, though single readings can be large or run the other way.
Answer with one of the outcomes class 1 for active, class 0 for inactive

Example entries and their recorded answers appear below.
CCCCCCCC/C=C\CCCCCCCC(=O)O = class 0
CC(C)=O = class 0
CCOc1ccc2c(c1)C(C)=CC(C)(C)N2 = class 0
CCCCCCCC(=O)O = class 0
CC(O)CO (stereo unspecified) = class 0

Next item in the queue.
Prompt: What call does the record list for Cc1ccccc1 ?
Completion: class 0

###

- Test system: DIV14
- TEST_SUMMARY: qHTS profiling for inhibitors of Plasmodium falciparum proliferation (AID 504749); note: nearly all actives have a fitted effect of over 60% in size; note: potency is the fitted concentration of half-maximal effect
- REPORTED_CONDITIONS: P. falciparum in erythrocytes, SYBR Green DNA, 72 h; series mostly up to 28.7 µM
Inconclusive results are not listed. Calls of active or inactive are those of the source. Calls come from the whole dose curve; as a rule, active = well fitted inhibition curve with a large enough effect; inconclusive = small, poorly fitted or top-dose-only effect; inactive = flat fitted curve, though single readings scatter.
ASSAY_METRIC: Potency

These recorded examples may help you get a feel for the data.
CCCCC/C=C\C/C=C\CCCCCCCC(=O)O = inactive
CC[N+](C)(C)Cc1ccccc1Br = inactive
CCCCCCC(O)C/C=C/CCCCCCCC(=O)O (stereo unspecified) = inactive
Cc1cc(C(=O)NNCc2ccccc2)no1 = inactive
O=C(O)c1cc(O)c2c(c1)[O][Bi][O]2 = inactive
Cc1ccccc1 = inactive

Prompt: # query: Potency of entry Nc1c(Br)cc(Br)cc1CNC1CCC(O)CC1 (stereo unspecified)
Completion: inactive

Prompt: # query: Potency of entry CO[C@H]1C[C@@H]2CC[C@@H](C)[C@@](O)(O2)C(=O)C(=O)N2CCCC[C@H]2C(=O)O[C@H]([C@H](C)C[C@@H]2CC[C@@H](OCCO)[C@H](OC)C2)CC(=O)[C@H](C)/C=C(\C)[C@@H](O)[C@@H](OC)C(=O)[C@H](C)C[C@H](C)/C=C/C=C/C=C/1C
Completion: 1.69 µM (active)

Prompt: # query: Potency of entry Cc1ccccc1OCC(O)CNCCOc1ccc(C(N)=O)cc1 (stereo unspecified)
Completion: inactive

Prompt: # query: Potency of entry COC(F)(F)C(Cl)Cl
Completion: inactive

Prompt: # query: Potency of entry O=C(Nc1cccc(C(F)(F)F)c1)c1cc(Br)cc(Br)c1O
Completion: 13.5 µM (active)

Prompt: # query: Potency of entry CCCC(=O)Nc1ncnc2c1ncn2C1OC2COP(=O)(O)OC2C1OC(=O)CCC (stereo unspecified)
Completion: inactive

Prompt: # query: Potency of entry CC1=C(/C=C/C(C)=C/C=C/C(C)=C/CO)C(C)(C)CCC1
Completion: 12 µM (active)

Prompt: # query: Potency of entry O=C1CSC2(CCN(CCCN3c4ccccc4Sc4ccc(Cl)cc43)CC2)N1
Completion: 15.1 µM (active)

Prompt: # query: Potency of entry Nc1c(N=Nc2ccc(-c3ccc(N=Nc4cc(S(=O)(=O)O)c5ccccc5c4N)cc3)cc2)cc(S(=O)(=O)O)c2ccccc12
Completion: inactive
